Form field: GI50 (one value per entry).
Tested on: OVCAR-5 ovarian
test description: NCI tumour cell line growth inhibition, 48 h

CC1(C)N=C(N)N=C(N)N1c1ccc(F)c(C(F)(F)F)c1 = > 100 µM
N#Cc1ccccc1C#C/C=C\C#Cc1ccc(OCCCNC(=O)c2cc3ccccc3[nH]2)cc1 = 21.3 µM
C(=C1c2ccccc2-c2ccccc21)c1ccccn1 = 21.8 µM

molecule O=C1c2ccccc2C(=O)N1c1ccc(S(=O)(=O)Nc2ncccn2)cc1 , GI50 observed: > 100 µM

In plain terms, CS(=O)(=O)CCNCc1ccc(-c2ccc3ncnc(Nc4ccc(OCc5cccc(C(F)(F)F)c5)cc4)c3c2)o1 has a documented GI50 of 9.03 µM

###

Tested on: RXF-631 renal
test description: NCI tumour cell line growth inhibition, 48 h
Quick reference: TGI of the listed items.

Examples with answers:
CCCNCc1nc2ccc(Br)cc2c(=O)n1CCC = 19 µM
Cn1c(CCC#N)nc2ccc(Br)cc2c1=O = > 100 µM

compound C=C1c2c(cc3c(c2O)c(=O)c2ccccc2n3C)OC1(C)C , TGI observed: > 100 µM

// C=C1CC(CCCl)(c2ccccc2)OC1=O (centres undefined) : TGI value = > 62.8 µM

Briefly, TGI measured for O=C(NO)c1coc2ccccc2c1=O : > 100 µM

Measured TGI, CCC[CH2][Sn]([CH2]CCC)([O]C(=O)c1cccc(F)c1)[O]C(=O)c1cccc(F)c1 : 0.486 µM

For record O=c1ccccc2cccc(O)c12 the listed TGI is > 100 µM

Data point: Cc1cc(NS(=O)(=O)c2ccc(NC(=O)c3cccc4c(N)c5ccccc5nc34)cc2)no1 ; TGI = 38.7 µM

The measured TGI associated with O=C(O)/C(=C/c1ccccc1[N+](=O)[O-])c1ccccc1 reads > 100 µM

###

System: SW-620 colon
test description: NCI tumour cell line growth inhibition, 48 h
readout: TGI

# count of solved cases: 2
CCOP(=O)(/C=C\n1cnc2c(=O)n(C(C)=O)c(N)nc21)OCC = > 100 µM
Cc1c(-c2cc3n(n2)C(c2cccs2)C(C#N)=C(c2ccccc2)N3)c(=O)n(-c2ccccc2)n1C (stereo not given) = > 100 µM

For the compound [Cu+2].[O-]c1ccc2ccccc2c1N=Nc1ccccc1.[O-]c1ccc2ccccc2c1N=Nc1ccccc1 , the measured TGI on SW-620 colon was > 100 µM

Assay SW-620 colon, sample O=C(Oc1ccccc1)c1cc2cc(CCl)ccc2oc1=O , TGI read: > 100 µM

Readout TGI for NC1CC(=O)c2csc(Br)c21 (stereo not given) , test system SW-620 colon, was 24.8 µM

###

Listed below: TGI values for each entry.
Test system: HOP-62 NSCLC
test description: NCI tumour cell line growth inhibition, 48 h

CN1C(=O)CNC(=O)[C@H](NC(=O)c2nc3ccccc3cc2O)CSSC[C@H]1C(=O)NCCc1nc2ccccc2cc1O = 53.4 µM
NC1C/C(=N\O)c2c(I)sc(I)c21 (stereo not drawn) = 34.4 µM
O=C(OCCOCBr)c1ccccc1 = > 100 µM
O=S1(=O)CCN(Cc2ccccn2)CC1 = > 100 µM

Lab entry: HOP-62 NSCLC assay, compound O=C(c1cc(Cl)cc(Cl)c1)N(C(=S)OC12CC3CC(CC(C3)C1)C2)c1ccccc1 , TGI = > 100 µM

Measured TGI (HOP-62 NSCLC), entry O=C1c2ccccc2-c2nc(-c3cccnc3)cc3c2c1nc1ccccc13 : > 100 µM

Note to self: TGI of COc1ccc2[nH]cc(-c3nc(-c4cn(C)c5ccncc45)cs3)c2c1 with HOP-62 NSCLC was 3.63 µM

Entry COP(C)(=O)/C(Cc1ccccc1)=N\O (stereo not drawn) under HOP-62 NSCLC had TGI of > 100 µM

Summary: C=CC1CC12C(=O)C1OC2(C)C2C(=O)c3c(ccc4c3ccc3ccccc34)C(=O)C12 (stereo not drawn) , HOP-62 NSCLC, TGI = > 100 µM

Short answer on HOP-62 NSCLC for COc1ccc2c3c1OC1C(=O)C=CC4(O)C(C2)NCC[C@@]314 (stereo partly drawn) , TGI: 9.87 µM

Lab note: compound COc1ccc(O)c(C(=O)c2ccc(C(=O)O[C@@H]3CCCNC[C@H]3NC(=O)c3ccncc3)cc2)c1F tested on HOP-62 NSCLC; recorded TGI was > 25 µM

Record CC(=O)OC12c3ccccc3C1CCCCCC21OCCCO1 (stereo not drawn) has HOP-62 NSCLC TGI equal to > 100 µM

Known value: HOP-62 NSCLC TGI of the compound Cc1ccc(NC(=O)/C(CC(=O)c2c[n+](=O)c3ccccc3n2O)=N\NC(=O)C[n+]2ccccc2)cc1 equals > 100 µM

###

Here the recorded TGI is given for each entry.
Test system: HL-60(TB) leukemia
test description: NCI tumour cell line growth inhibition, 48 h
Write it as a number; the unit µM goes unstated.

Recorded TGI, per entry:
O=C(Cn1nc(Br)c(Br)c1Br)c1ccccc1 = 30.5
COc1ccc(-c2n[nH]nc2-c2csc3ccccc23)cc1OC = 25.1
CC(=O)O[C@H]1C[C@]2(C)C(CCC3O[C@@]32C)[C@@]2(CC(c3ccoc3)OC2O)[C@@H]1C (stereo partly specified) = 52

COc1ccc(C(c2ccc(C(C)C)cc(=O)c2O)c2c(O)cc3oc(-c4ccccc4)cc(=O)c3c2O)cc1 (stereo unspecified) on HL-60(TB) leukemia gives TGI = 28.8

Entry O=C(/C=C/c1ccc(O)c(O)c1)OCCc1cccc2ccccc12 , HL-60(TB) leukemia data, TGI value: 3.52

Form field TGI for item COc1ccc2[nH]cc(-c3nc(-c4cn(C)c5ccncc45)cs3)c2c1 on HL-60(TB) leukemia: 4.12

Param item: COC(=O)NCCc1[nH]nc2c1C(=O)C=C(Nc1ccccc1)C2=O ; param system: HL-60(TB) leukemia; output TGI: 46.3

CC(C)CCC1(O)O[C@H]2C[C@H]3[C@@H]4CCC5CC(=O)C=C[C@]5(C)[C@H]4CC[C@]3(C)[C@H]2[C@@H]1C (stereo partly specified) on HL-60(TB) leukemia gives TGI = 17.7

TGI of C#C[C@]1(O)CC[C@H]2[C@@H]3CC=C4c5sc(N=C(N)N)nc5CC[C@]4(C)[C@H]3CC[C@@]21C , assay on HL-60(TB) leukemia, is 1.92

Per the reported HL-60(TB) leukemia data, CN(C)CCn1c2ccccc2c2nc3cc4ccccc4cc3nc21 has TGI of 11.1

###

System: TK-10 renal
test description: NCI tumour cell line growth inhibition, 48 h
readout: TGI

Illustrative cases are given below, each with its answer.
CC1=CC(C)(C)N=C2SC(c3ccc(Cl)cc3)=NN12 = > 100 µM
CC(=O)Nc1ccc(CNc2cc(=O)[nH]c(=O)[nH]2)cc1 = > 100 µM
O=S1(=O)CCN(Cc2ccccn2)CC1 = > 100 µM
O=C1C=C(Nc2ccccc2C(=O)CC(=O)C(=O)Nc2cccc(C(F)(F)F)c2)c2ccccc2C1=O = > 100 µM
COc1ccc2c(c1)CC[C@@H]1[C@@H]2CC[C@@]2(C)[C@H]1CC1(CCCCC1)[C@@H]2O = 31.8 µM

In plain terms, CCOC(=O)/N=C(\N)SCc1ccccc1 has a documented TGI of > 100 µM

According to the records, this compound O=C1c2ccccc2C(=O)N1c1ccc(S(=O)(=O)Nc2ncccn2)cc1 displays TGI of > 100 µM

###

compounds and their reported log10 TGI
Tested on: PC-3 prostate
test description: NCI tumour cell line growth inhibition, 48 h
For clarity, the numbers are log10 values of TGI expressed in µM.

NC1C/C(=N\O)c2c(I)sc(I)c21 (stereo unspecified) = 1.50

Simply: CC(C)CCC1(O)O[C@H]2C[C@H]3[C@@H]4CCC5CC(=O)C=C[C@]5(C)[C@H]4CC[C@]3(C)[C@H]2[C@@H]1C (stereo partly specified) , PC-3 prostate, log10 TGI = 1.24

// log10 TGI (PC-3 prostate) for COC(CCP(=O)(c1ccccc1)c1ccccc1)(C(=O)c1ccccc1)c1ccccc1 (stereo unspecified) = 1.09

Lab note: compound O=C(Oc1ccccc1)c1cc2cc(CCl)ccc2oc1=O tested on PC-3 prostate; recorded log10 TGI was 1.47

Reported PC-3 prostate log10 TGI for item CC1(c2ccc(Cl)cc2)CC(c2ccc(Cl)cc2)=C(C#N)C(=C(C#N)C#N)N1 (stereo unspecified) was 1.50

Test item O=C1CCCc2c1c1c(n2Cc2ccccc2)-c2ccccc2C1=O ; PC-3 prostate; reported log10 TGI was 1.98

The compound CC(C)(C)c1ccc([I+]c2ccc(C(C)(C)C)cc2)cc1 on PC-3 prostate: log10 TGI was 0.78

The measured log10 TGI that CN1CCN(c2ccc3nc(-c4cc(C(C)(C)C)c(O)c(C(C)(C)C)c4)[nH]c3c2)CC1 showed for PC-3 prostate is 0.62

# O=C1c2cc3ccccc3cc2C2(c3ccc(Cl)cc3)N[C@H]3CCCC[C@@H]3N12 (stereo partly specified) with PC-3 prostate: log10 TGI is 1.63

Source: PubChem BioAssay (NCI)
